Target: T1, recombinant RSV-F protein (RSV A2 strain fusion (F) protein with added His tag) (human respiratory syncytial virus, A2 …, UniProt P03420 26-524)
T1 construct: also called RSV-F recombinant protein
T1 sequence (P03420 26-109, chain 1 of 2): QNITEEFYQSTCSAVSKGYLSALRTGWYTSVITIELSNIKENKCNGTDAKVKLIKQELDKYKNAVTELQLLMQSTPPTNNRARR
T1 sequence (P03420 137-524, chain 2 of 2): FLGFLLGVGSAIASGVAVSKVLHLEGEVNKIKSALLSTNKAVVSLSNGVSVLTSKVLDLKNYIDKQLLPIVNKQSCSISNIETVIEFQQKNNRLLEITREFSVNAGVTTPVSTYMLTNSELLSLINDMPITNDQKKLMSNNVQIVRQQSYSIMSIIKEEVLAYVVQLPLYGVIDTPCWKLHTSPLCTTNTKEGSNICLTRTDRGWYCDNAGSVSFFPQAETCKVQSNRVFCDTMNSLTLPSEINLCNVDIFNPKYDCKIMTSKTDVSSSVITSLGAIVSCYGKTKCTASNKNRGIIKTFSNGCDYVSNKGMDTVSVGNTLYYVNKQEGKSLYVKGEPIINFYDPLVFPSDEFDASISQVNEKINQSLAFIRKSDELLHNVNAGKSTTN
Experiment: SPR (Biacore), antibody captured, RSV-F as analyte; column head prints nM, Kd/Ka gives M
property.name: Kd (pM)

A2-I (antibody, V domains shown, also called humanized mutant antibody A2-I) VH: QVTLKESGPALVKPTQTLTLTCTFSGFSLSTSGMGVSWIRQPPGKALEWLAHIYWDDDKNFNPSLRSRLTITKDPSKNQVVLTMTNMDPVDTATYFCARKLYNDYDYILDYWGQGTTVTVSS VL: DIVMTQSPLSLPVTPGEPASISCRSSKSLLHSNGITYLIWFLQKPGQSPQLLIYQMSNLASGVPDRFSGSGSGTDFTLKISRVEAEDVGVYYCAQNLELWTFGQGTRLEIK	52.8

Reference source: patent US20250026815A1
